Each entry below lists one item and its recorded PBM binding z-score value.
Tested on: RARg homodimer (NR concentration 270 nM)
assayProcedure: PBM binding z-score (relative to random genomic background probes); higher = stronger binding; sequences stand for … in GC…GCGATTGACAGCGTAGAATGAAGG
Lab note: record the figure alone, no unit after it.

Below: 10 sequences and their reported PBM binding z-score.
1. CCTACTGGGCCAAGGTCGTTGATCAGTCAAAGCA ... 0.541
2. AATACAGGGTCATCGTAGGCCAGAGAACGCACAG ... 5.66
3. TAGCCTAGGTTATTCAGGGGCCAGTATAGAAAGC ... 0.714
4. CCTACTGGGCCACGAAAGGTCATTGATTCAGTGA ... 4.37
5. CCAGAGAGGTGAGAAGGTAACTCAGCCTCGATTA ... 1.22
6. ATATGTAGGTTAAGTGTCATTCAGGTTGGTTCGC ... 1.47
7. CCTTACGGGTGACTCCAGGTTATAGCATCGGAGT ... 0.639
8. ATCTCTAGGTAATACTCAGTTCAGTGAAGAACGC ... 0.671
9. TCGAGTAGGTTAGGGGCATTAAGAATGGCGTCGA ... 0.269
10. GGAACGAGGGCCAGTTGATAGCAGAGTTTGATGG ... 0.0481

Reported PBM binding z-score, sequence `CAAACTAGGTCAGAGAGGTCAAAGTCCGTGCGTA` : ____ 6.79

Reported PBM binding z-score, sequence `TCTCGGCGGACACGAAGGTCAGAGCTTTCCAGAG` : ____ 2.17

Reported PBM binding z-score, sequence `AATACAGGGTCATCGTAGGACAGAGTACGCACAG` : ____ 5.18

Reported PBM binding z-score, sequence `GCATATAGGTAAAACAAGGTGAAAGTCCGATTGT` : ____ 0.33

Reported PBM binding z-score, sequence `AATACAGGGTCATCGTAGGCTAGAGTACGCACAG` : ____ 5.17

Reported PBM binding z-score, sequence `TCTTGTAGAACAGCAGGTTAAGAAAGCTGGCCAA` : ____ -0.558

Reported PBM binding z-score, sequence `AGAATGAGGTTATACCTAGATCAGGGAAGAAAGT` : ____ 1.14

* * *

Each entry below lists one item and its recorded PBM binding z-score value.
Tested on: VDR:RXRa (NR concentration 270 nM, RXRa partner concentration 90 nM)
assayProcedure: PBM binding z-score (relative to random genomic background probes); higher = stronger binding; sequences stand for … in GC…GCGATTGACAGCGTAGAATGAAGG
Lab note: record the figure alone, no unit after it.

Below: 5 sequences and their reported PBM binding z-score.
1. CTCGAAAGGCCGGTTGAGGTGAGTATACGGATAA ... -0.304
2. TGAATGAGGTTATACGATCAGGGAACGTTGCAAA ... 0.918
3. TTACCAAGGCGAAAGGTCGTTGATGCACGCCTTG ... 1.65
4. AGTATGAGGTTAAGATCAGGGAAACAGAATACAT ... 1.18
5. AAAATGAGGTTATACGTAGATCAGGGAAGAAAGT ... 1.65

Consider the record given below.
Reported PBM binding z-score, sequence `TCTTGTAGATCAAAGTTTAAGAAAGCCGAAGCCT` : ____ 0.555
